Just for reference, paper PMC9696605 is where these values come from.

TGT: T1, SH3 domain of human Fyn (Fyn-SH3), 15N-labelled (human, UniProt P06241 82-142)
T1 construct: also called 15N-Fyn-SH3
ASSAY_TEXT: NMR titration
COND: both partners purified
pKd: −log10 of the molar value. Where no end group is shown, it is not given here. [ ]: non-standard residue; d: D form. pT = C[C@@H](OP(=O)(O)O)[C@H](N)C(=O)O
OBSERVABLE: pKd

BINDER	RESULT
MDRPRTPPPSYSEVL (source: synthetic peptide (Fmoc solid phase, C18 HPLC purified)) [U24-6B(1-15), 15-residue peptide of the N-terminal region of U24 from HHV-6B]	3.30
MDRPR[pT]PPPSYSEVL (source: synthetic peptide, bought: Genscript) [pU24-6B(1-15), U24-6B peptide with phospho-threonine 6]	≤ 2.30
MDPPR[pT]PPPSYSEVL (source: synthetic peptide, bought: Genscript) [pU24-6A(1-15), U24-6A peptide with phospho-threonine 6]	≤ 1.92
